# measurement target: Stimulator of interferon genes protein (Homo sapiens, UniProt Q86WV6, R293Q)
# Sequence (Q86WV6 whole entry R293Q): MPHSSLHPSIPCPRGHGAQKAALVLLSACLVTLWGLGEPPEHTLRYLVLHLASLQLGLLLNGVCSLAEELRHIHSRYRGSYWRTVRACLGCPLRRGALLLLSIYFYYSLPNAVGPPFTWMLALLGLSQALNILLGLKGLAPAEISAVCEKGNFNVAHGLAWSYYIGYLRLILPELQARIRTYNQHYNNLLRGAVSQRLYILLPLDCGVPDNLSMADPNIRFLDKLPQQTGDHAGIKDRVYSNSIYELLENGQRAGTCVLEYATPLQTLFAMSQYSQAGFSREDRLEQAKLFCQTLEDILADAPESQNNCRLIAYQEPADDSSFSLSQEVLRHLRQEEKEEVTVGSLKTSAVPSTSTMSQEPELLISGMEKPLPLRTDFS
# experimental protocol: Activation of recombinant human STING haplotype R293Q mutant expressed in 293T cells measured after 30 mins in presence of digitonin A by bright Glo-luciferase reporter gene assay
measurement kind: EC50 (µM)

{"molecule": "Nc1nc2c(ncn2[C@@H]2O[C@@H]3COP(=O)(O)O[C@H]4C[C@H](n5cnc6c(N)nc(F)nc65)O[C@@H]4COP(=O)(O)O[C@@H]2[C@@H]3F)c(=O)[nH]1", "numeric readout": 0.7}
{"molecule": "Nc1nc2c(ccn2[C@@H]2O[C@@H]3COP(=O)(O)O[C@H]4[C@@H](O)[C@H](n5cnc6c(N)ncnc65)O[C@@H]4COP(=O)(O)O[C@@H]2[C@@H]3O)c(=O)[nH]1", "numeric readout": 1.1}
{"molecule": "NC(=O)c1ncn([C@@H]2O[C@@H]3COP(=O)(O)O[C@H]4[C@@H](O)[C@H](n5cnc6c(N)ncnc65)O[C@@H]4COP(=O)(O)O[C@@H]2[C@@H]3O)c1N", "numeric readout": 47.2}

(A) NC(=O)c1ncn([C@@H]2O[C@@H]3COP(=O)(O)O[C@@H]4[C@H](O)[C@@H](COP(=O)(O)O[C@H]3[C@H]2O)O[C@H]4n2cnc3c(=O)[nH]c(N)nc32)c1N
(B) Nc1nc2c(ncn2[C@@H]2O[C@@H]3COP(=O)(O)O[C@H]4C[C@H](n5cnc6c(N)nc(Cl)nc65)O[C@@H]4COP(=O)(O)O[C@@H]2[C@@H]3O)c(=O)[nH]1
(C) Nc1nc2c(ncn2[C@@H]2O[C@@H]3COP(=O)(O)O[C@H]4[C@H](O)[C@H](n5cnc6c(N)nc(F)nc65)O[C@@H]4COP(=O)(O)O[C@@H]2[C@@H]3O)c(=O)[nH]1
(D) Nc1nc2c(ncn2[C@@H]2O[C@@H]3COP(=O)(S)O[C@H]4[C@@H](O)[C@H](n5cnc6c(N)ncnc65)O[C@@H]4COP(=O)(O)O[C@@H]2[C@@H]3O)c(=O)[nH]1 (stereo partly drawn)
## Task Rank entries according to their EC50, from the largest number down. As an answer, provide the labels arranged in the order called for.
## Result A, B, C, D

###

# measurement target: Stimulator of interferon genes protein (Homo sapiens)
# experimental protocol: Activation of recombinant human wild-type STING expressed in 293T cells incubated for 7 hrs in absence of digitonin A by bright Glo-luciferase reporter gene assay
# Assay type: cell-based
pEC50: −log10 of the molar value.
measurement kind: pEC50

# example entries with known answers
{"record smiles": "CNc1ncnc2c1ncn2[C@@H]1O[C@@H]2COP(=O)(O)O[C@@H]3[C@H](O)[C@@H](COP(=O)(O)O[C@H]2[C@H]1O)O[C@H]3n1cnc2c(=O)[nH]c(N)nc21", "pEC50": 4.20}
{"record smiles": "Nc1ncnc2c1ncn2[C@@H]1O[C@@H]2COP(=O)(O)O[C@H]3[C@@H](O)[C@H](n4cnc5c(N)ncnc54)O[C@@H]3COP(=O)(O)O[C@H]2[C@H]1O", "pEC50": 4.83}
{"record smiles": "Nc1nc(N)c2ncn([C@@H]3O[C@@H]4COP(=O)(O)O[C@@H]5[C@H](O)[C@@H](COP(=O)(O)O[C@H]4[C@H]3F)O[C@H]5n3cnc4c(=O)[nH]c(N)nc43)c2n1", "pEC50": 4.56}
{"record smiles": "Nc1nc2c(ncn2[C@@H]2O[C@@H]3COP(=O)(O)O[C@H]4[C@@H](O)[C@H](n5cnc6c(=S)[nH]cnc65)O[C@@H]4COP(=O)(O)O[C@@H]2[C@@H]3O)c(=O)[nH]1", "pEC50": 3.74}
{"record smiles": "Nc1nc2c(ncn2[C@@H]2O[C@@H]3COP(=O)(O)O[C@H]4[C@@H](F)[C@H](n5cnc6c(N)nc(F)nc65)O[C@@H]4COP(=O)(O)O[C@@H]2[C@@H]3O)c(=O)[nH]1", "pEC50": 4.96}

(P) Nc1nc2c(ncn2[C@@H]2O[C@@H]3CO[P@](=O)(O)O[C@H]4[C@@H](O)[C@H](n5cnc6c(=O)[nH]c(N)nc65)O[C@@H]4CO[P@](=O)(O)O[C@H]3[C@H]2O)c(=O)[nH]1
(Q) Nc1ncc2ncn([C@@H]3O[C@@H]4COP(=O)(O)O[C@@H]5[C@H](O)[C@@H](COP(=O)(O)O[C@H]4[C@H]3O)O[C@H]5n3cnc4c(=O)[nH]c(N)nc43)c2n1
## Task Among P and Q , which shows a numerically higher pEC50 result? Select an item and report its label.
## Result Q
(Q: 4.27, P: 3.73)

(a) Nc1nc2c(ncn2[C@@H]2O[C@@H]3COP(=O)(O)O[C@H]4[C@H](O)[C@H](n5cnc6c(N)nc(F)nc65)O[C@@H]4COP(=O)(O)O[C@@H]2[C@@H]3O)c(=O)[nH]1
(b) Nc1nc2c(ccn2[C@@H]2O[C@@H]3COP(=O)(O)O[C@H]4[C@@H](O)[C@H](n5cnc6c(N)ncnc65)O[C@@H]4COP(=O)(O)O[C@@H]2[C@@H]3O)c(=O)[nH]1
## Task Returns: the argument ( a or b ) having the larger pEC50. Use the label to indicate which entry you chose.
## Result b
(b: 4.39, a: 3.73)

(1) Nc1nc2c(ncn2[C@@H]2O[C@@H]3COP(=O)(O)O[C@H]4[C@@H](N)[C@H](n5cnc6c(N)ncnc65)O[C@@H]4COP(=O)(O)O[C@@H]2[C@@H]3O)c(=O)[nH]1
(2) Nc1nc2c([C@@H]3O[C@@H]4COP(=O)(O)O[C@H]5[C@@H](O)[C@H](n6cnc7c(N)ncnc76)O[C@@H]5COP(=O)(O)O[C@@H]3[C@@H]4O)scc2c(=O)[nH]1
## Task In the pair 1 and 2 , the larger recorded pEC50 belongs to which? Answer by quoting the chosen item's label.
## Result 1
(1: 3.97, 2: 3.62)

###

# measurement target: Stimulator of interferon genes protein (Homo sapiens, UniProt Q86WV6, G230A/R293Q/R71H)
# Sequence (Q86WV6 whole entry R71H/G230A/R293Q): as the sequence (Q86WV6 whole entry R293Q) above, with R71H, G230A counted along it
# experimental protocol: Activation of recombinant human STING haplotype R71H/G230A/R293Q mutant expressed in 293T cells measured after 30 mins in presence of digitonin A by bright Glo-luciferase reporter gene assay
measurement kind: EC50 (nM)

(I) Nc1nc2c(ncn2[C@@H]2O[C@@H]3COP(=O)(O)O[C@H]4[C@@H](O)[C@H](n5cnc6c(=O)[nH]cnc65)O[C@@H]4COP(=O)(O)O[C@@H]2[C@@H]3O)c(=O)[nH]1
(II) CSc1nc(N)nc2c1ncn2[C@@H]1O[C@@H]2COP(=O)(O)O[C@@H]3[C@H](O)[C@@H](COP(=O)(O)O[C@H]2[C@H]1O)O[C@H]3n1cnc2c(=O)[nH]c(N)nc21
(III) Nc1nc2c(ncn2[C@@H]2O[C@@H]3COP(=O)(O)O[C@H]4[C@@H](N)[C@H](n5cnc6c(N)ncnc65)O[C@@H]4COP(=O)(O)O[C@@H]2[C@@H]3O)c(=O)[nH]1
## Task Order the records, beginning with the lowest EC50 and ending with the highest. Output spec: labels arranged per the requested ranking.
## Result III, I, II

###

# measurement target: Stimulator of interferon genes protein (Homo sapiens, UniProt Q86WV6, G230A/R293Q/R71H)
# experimental protocol: Activation of recombinant human STING haplotype R71H/G230A/R293Q mutant expressed in 293T cells measured after 30 mins in presence of digitonin A by bright Glo-luciferase reporter gene assay
pEC50: −log10 of the molar value.
measurement kind: pEC50

Previously resolved entries follow.
{"record smiles": "Nc1nc(N)c2ncn([C@@H]3O[C@@H]4COP(=O)(O)O[C@@H]5[C@H](O)[C@@H](COP(=O)(O)O[C@H]4[C@H]3F)O[C@H]5n3cnc4c(=O)[nH]c(N)nc43)c2n1", "pEC50": 7.40}
{"record smiles": "Nc1nc2c(ncn2[C@@H]2O[C@@H]3COP(=O)(O)O[C@@H]4[C@H](O)[C@@H](COP(=O)(O)O[C@@H]2[C@@H]3O)O[C@H]4n2cnc3c(N)ncnc32)c(=O)[nH]1", "pEC50": 7.70}

(1) Nc1nc2c(ncn2[C@@H]2O[C@@H]3CO[P@](=O)(O)O[C@H]4[C@@H](O)[C@H](n5cnc6c(=O)[nH]c(N)nc65)O[C@@H]4CO[P@](=O)(O)O[C@H]3[C@H]2O)c(=O)[nH]1
(2) Nc1nc2c(ncn2[C@@H]2O[C@@H]3COP(=O)(O)O[C@H]4C[C@H](n5cnc6c(N)nc(F)nc65)O[C@@H]4COP(=O)(O)O[C@@H]2[C@@H]3F)c(=O)[nH]1
(3) Nc1ncc2ncn([C@@H]3O[C@@H]4COP(=O)(O)O[C@@H]5[C@H](O)[C@@H](COP(=O)(O)O[C@H]4[C@H]3O)O[C@H]5n3cnc4c(=O)[nH]c(N)nc43)c2n1
(4) Nc1nc2c(ncn2[C@@H]2O[C@@H]3COP(=O)(O)O[C@H]4[C@@H](O)[C@H](n5cnc6c(=S)[nH]cnc65)O[C@@H]4COP(=O)(O)O[C@@H]2[C@@H]3O)c(=O)[nH]1
## Task Order the items by recorded pEC50; the first position goes to the largest value. Put the labels in the order asked and list them.
## Result 3, 2, 4, 1
(3: 7.40, 2: 7.00, 4: 6.70, 1: 6.05)

Measured values drawn from ChEMBL document CHEMBL4334523 for this set.
